Molecular target: SCRIB_2, Q14160
Sequence (Q14160 857-960): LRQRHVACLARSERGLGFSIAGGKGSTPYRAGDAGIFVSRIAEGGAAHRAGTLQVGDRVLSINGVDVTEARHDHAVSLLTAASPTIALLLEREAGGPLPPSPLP
Experiment: holdup assay
Design: key: below the threshold = too weak to quantify, mostly under pKd 3.1 to 4
Conditions: plain residues with an end cap or a label only (N-terminal biotin on a linker: ado-ado)
measurement label: pKd

For orientation, consider the following solved cases.
PYSESDDDWC [CACNA1A, O00555] = below the threshold
EPQYQPGENL [SRC, P12931] = below the threshold
ARSAAASNYV [CLDN4, O14493] = below the threshold
AQRARSPSDV [GPR12, P47775] = below the threshold
DFLSTFHIRI [CIB2, O75838] = below the threshold

Would you mind telling me what pKd value was observed for EDPRVEVTQF [SLC22A9, Q8IVM8] ?
below the threshold

Given the binder DRIQSCLSDA [SBF1, O95248] , what is its reported pKd?
below the threshold

Please report the recorded pKd for PPGKHLVTEV [KCNA7, Q96RP8] .
4.08

Can you share its pKd? I mean this binder: VKRNSKETVV [MARCHF3, Q86UD3]
3.89

For the binder shown here, AEASVACSLC [PTGIR, P43119] , give the reported pKd.
below the threshold
